Target: human TYRO3 (455-end) (Homo sapiens, UniProt Q06418)
Construct: TYRO3 (455-end); purchased SignalChem, Canada
Sequence (Q06418 455-890 limits assumed): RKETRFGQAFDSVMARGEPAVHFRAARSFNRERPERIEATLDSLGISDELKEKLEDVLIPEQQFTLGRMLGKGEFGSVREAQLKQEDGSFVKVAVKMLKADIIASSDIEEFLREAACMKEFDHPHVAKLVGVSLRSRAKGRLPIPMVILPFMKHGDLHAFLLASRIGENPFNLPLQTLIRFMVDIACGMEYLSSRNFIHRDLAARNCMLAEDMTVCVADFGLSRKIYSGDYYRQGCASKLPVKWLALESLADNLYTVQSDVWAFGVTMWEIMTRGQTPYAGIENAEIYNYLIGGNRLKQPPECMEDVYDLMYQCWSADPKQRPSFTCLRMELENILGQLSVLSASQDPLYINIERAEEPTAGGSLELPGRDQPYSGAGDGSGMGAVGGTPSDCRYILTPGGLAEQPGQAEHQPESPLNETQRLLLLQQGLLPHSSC
Test: HTRF kinase activity biochemical assay, TYRO3
pIC50: −log10 of the molar value.
Property Label: pIC50

Worked examples follow.
1) Cn1cc(-c2cnc(N)c(C(=O)N[C@H]3CCC[C@@H]3OCc3ccc(-c4cnc5c(c4)C(C)(C)C(=O)N5C4CCN(CCO)CC4)cc3)c2)cn1 [Example 76]: 6.00 to 7.00
2) Cn1cc(-c2cnc(N)c(C(=O)N[C@H]3CCC[C@@H]3OCc3ccc(-c4ccc5c(n4)C(C)(C)C(=O)N5C4CCN(CCO)CC4)cc3)c2)cn1 [Example 73]: 6.00 to 7.00

Note: attention shifts to another entry.
IN: Quote pIC50 reported for CC1(C)C(=O)N(C2CCN(CCO)CC2)c2ccc(-c3ccc(CO[C@H]4CCC[C@@H]4NC(=O)c4cc(-c5ccc(F)nc5)cnc4N)cc3)nc21 [Example 74] please.
OUT: 6.00 to 7.00
